assay_system: Recombinant Aβ1-42 (rAβ1-42 peptides) in the Thioflavin T fibril formation assay (UniProt P05067 672-713)
Sequence (P05067 672-713 limits assumed): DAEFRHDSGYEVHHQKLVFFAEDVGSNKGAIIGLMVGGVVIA
method_notes: cell-based or functional assay
measured_attribute: T50 (time in minutes for 50% inhibition of fibril formation) (min)
Respond with the bare value in min.

Some solved entries appear below for comparison.
monoclonal antibody 7b6.b12 (antibody, V domains shown, Mouse hybridoma mAb raised against NUCB1-capped hIAPP protofibrils; kappa light chain; also called mAb 7b6.b12) VH: EVQLQESGAELVKPGASVKISCKVSGYTFTDHTIHWMKQRPEQGLEWIGYIYPRDGSTKYNEKFKGKATLTADKSSSTAYMQLNSLTSEDSAVYFCARPYDYAWFAYWGQGTLVTVSA VL: DILLTQSPAILSVSPGERVSFSCRASQSIGTSIHWYQQRTNGSPRLLIKYASESISGIPSRFSGSGSGTDFTLSINSVESEDIADYYCQQSNSWPFTFGSGTKLEIK = 40.2
monoclonal antibody 5a8.b11 (antibody, V domains shown) VH: EVQLQESGPELVKPGASVKIPCKASGYTFTDYNMDWVKQSHGKSLEWIGDINPNNGGTIYNQKFKGKATLTVDKSSSTAYMELRSLTSEDTAVYYCARKGERGFDYWGQGTTLTVSS VL: ENVLTQSPAIMSASLGEKVTMSCRASSSVNYMYWYQQKSDASPKLWIYYTSNLAPGVPARFSGSGSGNSYSLTISSMEGEDAATYYCQQFTSSPSTFGAGTKLELK = 40.3
monoclonal antibody 3f2.e10 (antibody, V domains shown) VH: EVQLQESGGGLVQPKGSLKLSCAASGFSFNTYAMNWVRQAPGKGLEWVARIRSKSNNYATYYADSVKDRFTISRDDSESMLYLQMNNLKTEDTAMYYCVRLGAMDYWGQGTSVTVSS VL: DIVMTQSQKFMSTSVGDRVSVTCKASQNVGTNVAWYQQKPGQSPKALIYSASYRYSGVPDRFTGSGSGTDFTLTISNVQSEDLAEYFCQQYNSYPLTFGAGTKLEL = 42.6

Now let's try a different one.
**Q:** # query: T50 (time in minutes for 50% inhibition of fibril formation) of entry monoclonal antibody 5c9.a2 (antibody, V domains shown) VH: EVQLQESGPVLVKPGASVKMSCKASGYTFTDYYMNWVKQSHGKSLEWIGVINPYNGGTSYNQKFKGKATLTVDKSSSTAYMELNSLTSEDSAVYYCASLRRRTDYFDYWGQGTTLTVSS VL: DIVMTQSHKFMSTSVGDRVSITCKASQDVGTAVAWYQQKPGQSPKLLIYWASTRHTGVPDRFTGSGSGTDFTLTISNVQSEDLADYFCQQYSSYPLTFGAGTKLELK
**A:** 43.2
